Some molecules, each annotated with its measured DC50.
Molecular target: BTK (Homo sapiens, UniProt Q06187)
Construct: The GM01501.3 cell line endogenously expresses BTK with a HiBiT fusion tag via CRISPR knock-in at its C-terminal region; endogenous in cells; host or cells: GM01501.3 (GM01501 cells engineered by CRISPR knock-in of HiBiT at the BTK locus)
Sequence (Q06187 whole entry, the tested form may be a part): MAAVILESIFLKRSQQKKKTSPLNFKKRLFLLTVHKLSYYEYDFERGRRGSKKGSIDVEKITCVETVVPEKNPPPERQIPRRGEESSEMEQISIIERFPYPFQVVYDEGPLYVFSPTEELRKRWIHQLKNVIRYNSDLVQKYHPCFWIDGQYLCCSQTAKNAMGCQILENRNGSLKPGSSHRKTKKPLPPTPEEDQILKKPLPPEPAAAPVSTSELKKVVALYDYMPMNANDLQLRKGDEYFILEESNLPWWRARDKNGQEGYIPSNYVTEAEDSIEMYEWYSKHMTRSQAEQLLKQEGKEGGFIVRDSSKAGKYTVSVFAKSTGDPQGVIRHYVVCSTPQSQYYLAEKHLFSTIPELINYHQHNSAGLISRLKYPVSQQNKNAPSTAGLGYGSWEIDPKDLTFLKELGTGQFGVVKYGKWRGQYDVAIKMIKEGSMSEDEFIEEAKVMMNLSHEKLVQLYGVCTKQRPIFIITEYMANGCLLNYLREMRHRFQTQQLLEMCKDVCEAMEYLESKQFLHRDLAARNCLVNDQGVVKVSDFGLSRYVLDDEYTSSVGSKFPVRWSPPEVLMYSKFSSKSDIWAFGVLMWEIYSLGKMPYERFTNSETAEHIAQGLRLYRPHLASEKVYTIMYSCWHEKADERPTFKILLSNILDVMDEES
Assay: BTK degradation assay using the HiBiT Method (Nano-Glo HiBiT Lytic Assay, GM01501.3 cells)
Format: cell-based
Conditions: HiBiT Degradation on GM01501.3 BTK @ 6 hours

>>> reported_value("Cc1cc(-c2ccnc3cc(CCCCN4CCC(c5ccc6c(N7CCC(=O)NC7=O)nn(C)c6c5)CC4)nn23)ccc1CNC(=O)c1noc(C(C)(C)C)n1 [Example 300]")
"< 100 nM"
>>> reported_value("Cc1cc(-c2ncnn3cc(-c4ccc5c(c4)CN(CCc4ccc(NC6CCC(=O)NC6=O)cc4)C5)cc23)ccc1CNC(=O)c1noc(C(C)(C)C)n1 (stereo not drawn) [Example 55]")
"< 100 nM"

We next turn to a different molecule, shown below.
Prompt: Write down the reported DC50 of CC(C)(C)c1nc(C(=O)NCc2ccc(-c3ncnn4cc(CCCCN5CCC(c6ccc(NC7CCC(=O)NC7=O)nc6)CC5)cc34)cc2F)no1 (stereo not drawn) [Example 138] , test system: BTK (Homo sapiens, UniProt Q06187).
Response: < 100 nM

* * *

DC50 by entry:
Biological target: BTK (Homo sapiens)
Construct: The GM01501.3 cell line endogenously expresses BTK with a HiBiT fusion tag via CRISPR knock-in at its C-terminal region; endogenous in cells; host or cells: GM01501.3 (GM01501 cells engineered by CRISPR knock-in of HiBiT at the BTK locus)
Assay: BTK degradation assay using the HiBiT Method (Nano-Glo HiBiT Lytic Assay, GM01501.3 cells)
Type: cell-based
Conditions: HiBiT Degradation on GM01501.3 BTK @ 6 hours

Some solved entries appear below for comparison.
>>> reported_value("Cc1cc(-c2ncnn3cc(-c4ccc(CN5CCC(c6ccc(NC7CCC(=O)NC7=O)cc6)CC5)cc4)cc23)ccc1CNC(=O)CCCC(C)(C)C (stereo not drawn)")
"< 100 nM"
>>> reported_value("Cc1cc(-c2ncnn3cc(CCCCN4CCC(c5ccc6c(N7CCC(=O)NC7=O)nn(C)c6c5)CC4)cc23)ccc1CNC(=O)c1noc(C(C)(C)C)n1")
"< 100 nM"

Now for the molecule whose DC50 we want.
Prompt: Report DC50 for CC(C)(C)c1nc(C(=O)NCc2ccc(-c3ncnn4cc(-c5ccc(CN6CCOc7cc(OC8CCC(=O)NC8=O)ccc7C6)cn5)cc34)cc2F)no1 (stereo not drawn) tested on BTK (Homo sapiens).
Response: 100 to 500 nM

* * *

Molecular target: BTK (Homo sapiens, UniProt Q06187)
Construct: The GM01501.3 cell line endogenously expresses BTK with a HiBiT fusion tag via CRISPR knock-in at its C-terminal region; endogenous in cells; host or cells: GM01501.3 (GM01501 cells engineered by CRISPR knock-in of HiBiT at the BTK locus)
Experiment: BTK degradation assay using the HiBiT Method (Nano-Glo HiBiT Lytic Assay, GM01501.3 cells)
Assay type: cell-based
Conditions: HiBiT Degradation on GM01501.3 BTK @ 6 hours
This section presents compounds with their documented DC50 values.

Worked examples follow.
>>> reported_value("Cc1cc(-c2ncnn3cc(-c4ccc(OCCCCN5CCC(c6ccc(NC7CCC(=O)NC7=O)cc6)CC5)cc4)cc23)ccc1CNC(=O)c1noc(C(C)(C)C)n1 (stereo not drawn)")
"< 100 nM"
>>> reported_value("Cc1cc(-c2ncnn3cc(CCN4CCC(c5ccc6c7c(cccc57)C(=O)N6C5CCC(=O)NC5=O)CC4)cc23)ccc1CNC(=O)c1noc(C(C)(C)C)n1 (stereo not drawn)")
"< 100 nM"

Now look at this one.
Prompt: Endpoint output: DC50 of Cc1cc(-c2ncnn3cc(-c4ccc(N5CCC(c6ccc(C7CCC(=O)NC7=O)cc6)CC5)cc4)cc23)ccc1CNC(=O)c1noc(C(C)(C)C)n1 (stereo not drawn) . Value?
Response: 100 to 500 nM

* * *

Target: BTK (Homo sapiens)
Construct: The GM01501.3 cell line endogenously expresses BTK with a HiBiT fusion tag via CRISPR knock-in at its C-terminal region; endogenous in cells; host or cells: GM01501.3 (GM01501 cells engineered by CRISPR knock-in of HiBiT at the BTK locus)
Assay: BTK degradation assay using the HiBiT Method (Nano-Glo HiBiT Lytic Assay, GM01501.3 cells)
Assay type: cell-based
Conditions: HiBiT Degradation on GM01501.3 BTK @ 6 hours
Recorded measurements of DC50, one per entry

>>> reported_value("Cc1cc(-c2ncnn3cc(-c4cccc(C(C)CN5CCC(c6ccc(C7CCC(=O)NC7=O)cc6)CC5)c4)cc23)ccc1CNC(=O)c1noc(C(C)(C)C)n1 (stereo not drawn) [Example 207]")
"< 100 nM"
>>> reported_value("Cc1cc(-c2ncnn3cc(-c4ccn5cc(CN6CCC(c7ccc(C8CCC(=O)NC8=O)cc7)CC6)nc5c4)cc23)ccc1CNC(=O)c1noc(C(C)(C)C)n1 (stereo not drawn) [Example 211]")
"< 100 nM"

Below: the item to evaluate.
Prompt: Data request, read-out DC50, for Cc1cc(-c2ncnn3cc(-c4cn5c(CN6CCC(c7ccc(C8CCC(=O)NC8=O)cc7)CC6)cnc5s4)cc23)ccc1CNC(=O)c1noc(C(C)(C)C)n1 (stereo not drawn) [Example 210]
Response: 100 to 500 nM

* * *

Target: BTK (Homo sapiens, UniProt Q06187)
Construct: The GM01501.3 cell line endogenously expresses BTK with a HiBiT fusion tag via CRISPR knock-in at its C-terminal region; endogenous in cells; host or cells: GM01501.3 (GM01501 cells engineered by CRISPR knock-in of HiBiT at the BTK locus)
Experiment: BTK degradation assay using the HiBiT Method (Nano-Glo HiBiT Lytic Assay, GM01501.3 cells)
Assay type: cell-based
Conditions: HiBiT Degradation on GM01501.3 BTK @ 6 hours
MEASURE: DC50

Worked examples follow.
>>> reported_value("Cc1cc(-c2ncnn3cc(-c4ccc(CN5CCC(c6ccc(NC7CCC(=O)NC7=O)cc6)CC5)c(Cl)c4)cc23)ccc1CNC(=O)c1noc(C(C)(C)C)n1 (stereo not drawn) [Example 15]")
"< 100 nM"
>>> reported_value("Cc1c(NC(=O)c2ccc(C(C)(C)O)cc2)cc(F)cc1-c1ncnn2cc(-c3ccc(CN4CCC(c5ccc(NC6CCC(=O)NC6=O)cc5)CC4)cc3)cc12 (stereo not drawn) [Example 153]")
"< 100 nM"

Let us move to another entry and its DC50.
Prompt: Requested read-out DC50, target or system BTK (Homo sapiens, UniProt Q06187), entry Cc1cc(-c2ncnn3cc(-c4cnn(CCN5CCC(c6ccc7c(C8CCC(=O)NC8=O)nn(C)c7c6)CC5)c4)cc23)ccc1CNC(=O)c1noc(C(C)(C)C)n1 (stereo not drawn) [Example 299]
Response: < 100 nM

* * *

Molecular target: BTK (Homo sapiens, UniProt Q06187)
Construct: The GM01501.3 cell line endogenously expresses BTK with a HiBiT fusion tag via CRISPR knock-in at its C-terminal region; endogenous in cells; host or cells: GM01501.3 (GM01501 cells engineered by CRISPR knock-in of HiBiT at the BTK locus)
Assay: BTK degradation assay using the HiBiT Method (Nano-Glo HiBiT Lytic Assay, GM01501.3 cells)
Type: cell-based
Details: HiBiT Degradation on GM01501.3 BTK @ 6 hours
MEASURE: DC50

>>> reported_value("Cc1cc(-c2ncnn3cc(CCN4CC[C@@H](c5ccc6c(N7CCC(=O)NC7=O)nn(C)c6c5)C4)cc23)ccc1CNC(=O)c1noc(C(C)(C)C)n1 (single isomer, unassigned)")
"< 100 nM"
>>> reported_value("O=C1CCC(Nc2ccc(C3CCN(Cc4ccc(-c5cc6c(-c7ccc(CNC(=O)c8ccc(C(F)F)cc8)c(F)c7)ncnn6c5)cc4)CC3)nc2)C(=O)N1 (centres unmarked)")
"< 100 nM"
>>> reported_value("Cc1cc(-c2ncnn3cc(-c4ccc5c(c4)CN(CCCc4ccc(NC6CCC(=O)NC6=O)cc4)CC5)cc23)ccc1CNC(=O)c1noc(C(C)(C)C)n1 (centres unmarked)")
"< 100 nM"

Prompt: Look up DC50 with BTK (Homo sapiens, UniProt Q06187) for this molecule: CC(C)(C)c1nc(C(=O)NCc2ccc(-c3ncnn4cc(-c5ccc(CN6CCCCC6Cc6ccc(OC7CCC(=O)NC7=O)cc6)cn5)cc34)cc2F)no1 (centres unmarked)
Response: < 100 nM

Prompt: Can you look up DC50 on BTK (Homo sapiens, UniProt Q06187) for COc1cc(CN2CCC(c3ccc(C4CCC(=O)NC4=O)cc3)CC2)ccc1OCCOc1cccc(-c2cc3c(-c4ccc(CNC(=O)c5noc(C(C)(C)C)n5)c(C)c4)ncnn3c2)c1 (centres unmarked) ?
Response: 100 to 500 nM
